Biological target: human MoGAT-2 (Homo sapiens, UniProt Q3SYC2)
Sequence (Q3SYC2 whole entry): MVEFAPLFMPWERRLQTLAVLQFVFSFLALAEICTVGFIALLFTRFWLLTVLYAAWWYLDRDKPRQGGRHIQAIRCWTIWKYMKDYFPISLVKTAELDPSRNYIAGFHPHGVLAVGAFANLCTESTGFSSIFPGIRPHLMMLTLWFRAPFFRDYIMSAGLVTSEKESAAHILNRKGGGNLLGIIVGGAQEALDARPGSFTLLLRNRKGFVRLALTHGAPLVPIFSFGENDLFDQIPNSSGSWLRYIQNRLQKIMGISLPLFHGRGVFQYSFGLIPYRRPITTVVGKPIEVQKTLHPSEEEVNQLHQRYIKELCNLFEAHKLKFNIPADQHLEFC
Test: Inhibitory Activity in MOGAT-2 Cell Assay (Caco-2 cells stably transfected with human MoGAT-2, HDG substrate, LC-MS)
Assay type: cell-based
Parameters: expressed in transfected cells
Details: Caco-2 cells expressing human MoGAT-2; 4 hours treatment with HDG/DOPC; read-out: C50 nM (Std Dev.; n*)
Protocol: The inhibitory activity of compounds against human MoGAT-2 in a cell environment is evaluated in this assay. Caco-2 is a human colon carcinoma cell line and is often used as a model for intestinal epithelial cells. […] The substrate is delivered to cells using as a mixture with DOPC in the form of sonicated vesicles. Seed the Caco2 cells onto 100 mm dishes to be 80% confluent after 24 hours in complete media (3/1 DMEM: F12+10% FBS+20 mM HEPES+gentamicin). […]
Structures can show the parent of a compound that is named as a salt.
The entries below come with measured IC50 values attached.
property.measured: IC50 (nM)

- compound: "C[C@@H](NS(C)(=O)=O)c1ccc(CNCC2COC(c3ccccc3)CO2)cc1 (single isomer, unassigned; isomer 2) [Example 29]"
  data.value: 294
- compound: "C[C@@H](NS(C)(=O)=O)c1ccc(CNC2CCN(c3ccccc3)C2)cc1 (single isomer, unassigned; isomer 2) [Example 19]"
  data.value: 105
- compound: "C[C@@H](NS(C)(=O)=O)c1ccc(CNCC2COc3ccccc3N2)cc1 (single isomer, unassigned; isomer 2) [Example 14]"
  data.value: 479
- compound: "CS(=O)(=O)N[C@@H](c1ccc(CNCCN2CCc3ccccc3C2=O)cc1)C(F)(F)F [Example 31, hydrochloride]"
  data.value: 266
- compound: "CS(=O)(=O)N[C@@H](c1ccc(CNC[C@H]2COc3cccnc3O2)cc1)C(F)(F)F [Example 1, hydrochloride]"
  data.value: 3.8

====

biological target: human MoGAT-2 (Homo sapiens, UniProt Q3SYC2); assay: MOGAT-2 Inhibitory Assay (SF9 cell lysate, 14C-oleoyl-CoA, Microscint E extraction); format: biochemical; set-up: made in house; host or cells: insect SF9 cells (cell lysate supernatant); details: human MoGAT-2 expressed in SF9 cells, cell extract; 90 minutes at room temperature
Structures can show the parent of a compound that is named as a salt.

- compound: "CS(=O)(=O)N[C@@H](c1ccc(CNC[C@H]2COc3cccnc3O2)cc1)C(F)(F)F [Example 1, hydrochloride]"
  target.or.system: "human MoGAT-2 (Homo sapiens, UniProt Q3SYC2)"
  IC50 / nM: 2.28
